Where do these numbers come from? They come from PubChem BioAssay AID1259407.

Tested on: CCRIS mutagenicity, Ames/micronucleus/aberration tests
Procedure summary: CCRIS mutagenicity studies
Details: Test System: AMES SALMONELLA TYPHIMURIUM; Strain/Indicator: TA1537; Metabolic Activation: RAT, LIVER, S-9, PHENOBARBITAL AND BETA-NAPHTHOFLAVONE; Method: PREINCUBATION
The source made the active and inactive calls. How the calls were made is not given here.
Permitted responses: active, inactive

Example cases with answers are listed next.
{"Structure notation": "O=[N+]([O-])c1ccc(O)c([N+](=O)[O-])c1", "Test system": "CCRIS mutagenicity, Ames/micronucleus/aberration tests", "Class assignment": "inactive"}
{"Structure notation": "COC(=O)Nc1nc2ccccc2[nH]1", "Test system": "CCRIS mutagenicity, Ames/micronucleus/aberration tests", "Class assignment": "active"}
{"Structure notation": "NCc1ccc(CN)cc1", "Test system": "CCRIS mutagenicity, Ames/micronucleus/aberration tests", "Class assignment": "inactive"}
{"Structure notation": "Nc1cccc(N)n1", "Test system": "CCRIS mutagenicity, Ames/micronucleus/aberration tests", "Class assignment": "active"}

API: the following record is the query input.
Answer briefly: the call reported for Nc1ccccc1S in this assay.
inactive

----------
Tested on: CCRIS mutagenicity, Ames/micronucleus/aberration tests
Procedure summary: CCRIS mutagenicity studies
Details: Test System: AMES SALMONELLA TYPHIMURIUM; Strain/Indicator: TA102; Metabolic Activation: RAT, LIVER, S-9, AROCLOR 1254; Method: STANDARD PLATE
The source made the active and inactive calls. The rule behind the calls is not given here.
Permitted responses: 1 for active, -1 for inactive

{"Molecule": "C=COC(C)=O", "Class assignment": -1}
{"Molecule": "ClC1=C(Cl)[C@]2(Cl)[C@@H]3[C@H]4C[C@H]([C@@H]5O[C@H]45)[C@@H]3[C@@]1(Cl)C2(Cl)Cl", "Class assignment": -1}
{"Molecule": "CCO[Si](OCC)(OCC)OCC", "Class assignment": -1}
{"Molecule": "Cc1nc2c(c3[nH]c4ccccc4c13)C(=O)C(N1CC1)=CC2=O", "Class assignment": 1}
{"Molecule": "CC(C)NCC(O)COc1cccc2c1C=CC2 (centres undefined)", "Class assignment": -1}

Answer briefly: the call reported for Cc1ccc(C)c(C)c1 in this assay.
-1

Answer briefly: the call reported for CC(=O)n1ccnc1 in this assay.
-1

Answer briefly: the call reported for CN(C)C(=S)SSC(=S)N(C)C in this assay.
-1

Answer briefly: the call reported for Clc1ccncc1 in this assay.
-1

Answer briefly: the call reported for Cc1nc2ccccc2s1 in this assay.
-1

Answer briefly: the call reported for O=C1OCC(C(Cl)Cl)=C1Cl in this assay.
-1

Answer briefly: the call reported for O=C1[C@H]2CC=CC[C@H]2C(=O)N1SC(Cl)(Cl)Cl in this assay.
-1

----------
Test system: CCRIS mutagenicity, Ames/micronucleus/aberration tests
Procedure summary: CCRIS mutagenicity studies
Details: Test System: AMES SALMONELLA TYPHIMURIUM; Strain/Indicator: TA100; Metabolic Activation: NONE; Method: PREINCUBATION
Active and inactive are the calls of the source. The rule behind the calls is not given here.
Measured metric: mutagenic call

See these solved cases before continuing.
{"Structure notation": "Cc1ccccc1N=Nc1c(O)ccc2ccccc12", "Test value": "inactive; negative"}
{"Structure notation": "CC1=CC(=O)C=C(C)C1=O", "Test value": "inactive; negative"}
{"Structure notation": "O=[N+]([O-])c1cc2c3c(ccc2c2ccccc12)[C@H](O)[C@@H](O)C=C3", "Test value": "active; positive"}
{"Structure notation": "N#CCCCCC#N", "Test value": "inactive; negative"}
{"Structure notation": "Nc1ccc(Cc2ccc(NO)c(Cl)c2)cc1Cl", "Test value": "active; positive"}
{"Structure notation": "CCC=O", "Test value": "inactive; negative"}
{"Structure notation": "CC(C)CON=O", "Test value": "inactive; negative"}
{"Structure notation": "CC(C)CCCCCCCOC(=O)c1ccccc1C(=O)OCCCCCCCC(C)C", "Test value": "inactive; negative"}

Query: mutagenic call; subject: CC(C)OS(C)(=O)=O
active; positive

Query: mutagenic call; subject: CC(C)(C)OOC(=O)c1ccccc1
inactive; negative

Query: mutagenic call; subject: CC(=O)CN(C)N=O
inactive; negative

Query: mutagenic call; subject: Oc1ccc2cc(SSc3ccc4cc(O)ccc4c3)ccc2c1
inactive; negative

Query: mutagenic call; subject: O=C1c2ccccc2C(=O)c2c1cc(O)c(C(=O)O)c2O
inactive; negative

Query: mutagenic call; subject: CC(C)(O)C#N
inactive; negative

Query: mutagenic call; subject: Cl/C=C\Cl
inactive; negative

----------
Tested on: CCRIS mutagenicity, Ames/micronucleus/aberration tests
Procedure summary: CCRIS mutagenicity studies
Details: Test System: AMES SALMONELLA TYPHIMURIUM; Strain/Indicator: TA1537; Metabolic Activation: NONE; Method: STANDARD PLATE
Active and inactive are the calls of the source. The rule behind the calls is not given here.
Permitted responses: t = active, f = inactive

Example cases with answers are listed next.
{"Molecule": "CN(C)CCNC(=O)c1cccc2cc3ccccc3nc12", "Class assignment": "t"}
{"Molecule": "NCCc1c[nH]c2ccc(O)cc12 (tested in a mixture with another compound)", "Class assignment": "f"}
{"Molecule": "CC(O)CN1CC(C)OC1=O (configuration not stated)", "Class assignment": "f"}
{"Molecule": "CC(=O)c1cc2c(cc1C)C(C)(C)C(C)CC2(C)C (configuration not stated)", "Class assignment": "f"}
{"Molecule": "CC(=O)O[C@@H]1[C@@H](O)[C@H](O[C@H]2[C@H](OC(=O)[C@H]3CC[C@@H]4[C@H](C3)O[C@@]3(C[C@H](OC(=O)/C=C/c5ccccc5)[C@H](C)CO3)[C@]43CO3)O[C@H](C)[C@@H](O)[C@@H]2OC(C)=O)O[C@H](C)[C@H]1O", "Class assignment": "f"}

Answer briefly: the call reported for Cc1ccc(NS(=O)(=O)c2cccc3cccnc23)cc1 in this assay.
f

Answer briefly: the call reported for C1CSCCS1 in this assay.
f

Answer briefly: the call reported for C1COCCO1 in this assay.
f

Answer briefly: the call reported for C[n+]1ccn(CCS(C)(=O)=O)c1/C=N/O in this assay.
f

Answer briefly: the call reported for CN(C)CCNS(=O)(=O)c1cccc2cccnc12 in this assay.
f

Answer briefly: the call reported for CCOCC(O)COc1ccc(NC(=O)CC[S+](C)C)cc1 (configuration not stated) in this assay.
f

Answer briefly: the call reported for Cc1cc(O)c2c(c1)C(=O)C13C(=C2O)C(=O)C2C(O)C1C1C(O)C3C(=O)C3=C(O)c4c(O)cc(C)cc4C(=O)C321 (configuration not stated) in this assay.
f

----------
System: CCRIS mutagenicity, Ames/micronucleus/aberration tests
Procedure summary: CCRIS mutagenicity studies
Details: Test System: AMES SALMONELLA TYPHIMURIUM; Strain/Indicator: TA1535; Metabolic Activation: RAT, LIVER, S-9, AROCLOR 1254; Method: PREINCUBATION
Calls of active or inactive are those of the source. The rule behind the calls is not given here.
Permitted responses: label 1 = active, label 0 = inactive

Example cases with answers are listed next.
{"Molecule": "CCC1CO1 (centres undefined)", "Test system": "CCRIS mutagenicity, Ames/micronucleus/aberration tests", "Class assignment": "label 1"}
{"Molecule": "COc1cccc(N)c1", "Test system": "CCRIS mutagenicity, Ames/micronucleus/aberration tests", "Class assignment": "label 0"}
{"Molecule": "Cc1cc(=O)oc2cc(O)ccc12", "Test system": "CCRIS mutagenicity, Ames/micronucleus/aberration tests", "Class assignment": "label 0"}

Answer briefly: the call reported for CC1=CC(=O)C=C2CC[C@@H]3[C@H](CC[C@]4(C)C(=O)CC[C@@H]34)[C@@]12C in this assay.
label 0

Answer briefly: the call reported for CNN in this assay.
label 0

Answer briefly: the call reported for CCCCN(CCCC)N=O in this assay.
label 1

Answer briefly: the call reported for C=CCCl in this assay.
label 1

Answer briefly: the call reported for O=[N+]([O-])c1cc(Cl)c(Cl)c(Cl)c1Cl in this assay.
label 0

Answer briefly: the call reported for CCN=[N+](C)[O-] in this assay.
label 0

----------
System: CCRIS mutagenicity, Ames/micronucleus/aberration tests
Procedure summary: CCRIS mutagenicity studies
Details: Test System: E. coli; Strain/Indicator: WP2uvrA/pKM101; Metabolic Activation: None; Method: Preincubation
Active and inactive are the calls of the source. The rule behind the calls is not given here.
Permitted responses: T for active, F for inactive

{"Structure notation": "CC(=O)CC(=O)Nc1ccccc1C", "Class assignment": "F"}

Answer briefly: the call reported for CC(C)CO in this assay.
F

Answer briefly: the call reported for O=C(O)CCCl in this assay.
T

Answer briefly: the call reported for C1N2CN3CN1CN(C2)C3 in this assay.
F

Answer briefly: the call reported for C=COC(C)=O in this assay.
F
